Source of measurements: PubChem BioAssay (NCI)

I'd be grateful if you could share measured growth inhibition for these entries.
Experiment: NCI Yeast Anticancer Drug Screen. Data for the CLN2oe strain (AID 163);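 further: 0% = growth of vehicle-only control cultures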
Settings: S. cerevisiae CLN2oe strain, at 1.2 µM, stronger effect = higher value
The panel holds about 79,000 compounds, 15% with a hit somewhere; the sample as a whole holds those more often.
Report as a plain number; the unit % is understood.

Indicate the recorded growth inhibition value for this compound: `Cc1nc2c(ncn2CCO)c(=O)[nH]1` 0

Assign growth inhibition to the following record: `CCCc1[nH]nc(C(N)=O)c1N=NN(C)C` -3

Give recorded growth inhibition. `CCOC(=O)C1=C(C)NC(C)=C(C(=O)OCC)C1c1ccccc1Cl` -13

Provide growth inhibition value for the following compound: `O=C1C=CC(=O)N1c1ccc(I)cc1` 13

// fetch growth inhibition given entry `Cc1ccccc1NC(=O)Cc1csc(N/N=C2\NC(=O)/C(=C/c3cccc([N+](=O)[O-])c3)S2)n1` 0

Given CCC(c1ccc(O)cc1)C(CC)c1ccc(OCCN)cc1 (stereo unspecified) , respond with its growth inhibition. -1

Give the reported growth inhibition for this compound. CC(=O)OCC1OC(O[C@H]2C=C[C@@H](C(=O)OCc3ccccc3)n3c(=O)n(-c4ccccc4)c(=O)n32)C(OC(C)=O)C(OC(C)=O)C1OC(C)=O (stereo partly specified) 10

For the compound N#CSC1CCCCNC1=O (stereo unspecified) , give its reported growth inhibition. -4

Read off the recorded growth inhibition for `Oc1ccc(Br)cc1C=NC1CCCCC1` -3

Given the compound `CN(C)c1ccc(N=Nc2ccccn2)cc1` , write its reported growth inhibition. 1

Quick one: give measured growth inhibition for `O=[N+]([O-])c1cc(S(=O)(=O)Nc2ccccc2)ccc1Cl` -8

Give growth inhibition for the following compound: `COc1ccc(S(=O)(=O)N/N=C\c2cc([N+](=O)[O-])cc(I)c2O)c(OC)c1OC` -6

Answer with the recorded growth inhibition of `C=Cc1cnc([N+](=O)[O-])n1C` only. -14

Please look at this compound and report its growth inhibition: `Cc1c2cc[n+](CCN3CCCCC3)cc2c(C)c2c1[nH]c1ccc(O)cc12` -3

Identify measured growth inhibition corresponding to `N#CC(=S)Nc1cccc(Cl)c1` 8

Please list growth inhibition recorded for the compound `Cc1ccc(S(=O)(=O)N(C)c2ccc(Cl)cc2C2=NCCc3ccccc32)cc1` 15

Note growth inhibition for the compound shown: CCOC(=O)C(NC(=O)CC)(N1CCN(c2cc3c(cc2F)c(=O)c(C(=O)O)cn3C2CC2)CC1)C(F)(F)F (stereo unspecified) 1

Determine from records and report growth inhibition for `CCOc1ccc(C(=O)CCC(=O)O)c(C)c1` 0

Hello, please tell me recorded growth inhibition for this one: `COc1ccc2c(c1)[nH]c1c(/C=C/c3ccccc3)nccc12` -15

Please give the documented growth inhibition of `CNc1ccc(Cc2c[nH]c3ccccc23)cc1` -8

Please look at this compound and report its growth inhibition: `CN[C@@H]1C[C@H]2O[C@@](C)([C@@H]1OC)n1c3ccccc3c3c4c(c5c6ccccc6n2c5c31)C(=O)N[C@@H]4O` -8

Specify measured growth inhibition for CC(=O)[C@]1(O)Cc2c(O)c3c(c(O)c2[C@@H](OC2CC(N)C(O)C(C)O2)C1)C(=O)c1c(OCc2ccccc2)cccc1C3=O (stereo partly specified) . 5

Determine from records and report growth inhibition for Nc1nc2c(c(=O)[nH]1)NC(CCNc1ccc(C(=O)O)cc1)CN2 (stereo unspecified) -2

Name the recorded growth inhibition of the compound listed here: CC1C(C#N)(C#N)C(C#N)=C(N)C1(Cl)[N+](=O)[O-] (stereo unspecified) 19

Given `Cc1ccc(Nc2c3c(c(C#N)c4nc5ccccc5n24)CCCC3)cc1` , respond with its growth inhibition. 20

Give growth inhibition for the following compound: `O=C1C=CC(=O)N1c1ccc(N2C(=O)C=CC2=O)cc1` 35

Fill in growth inhibition for record `O=C1C=CC(=O)N1c1ccc2c(c1)OCO2` -9

Please list growth inhibition recorded for the compound `COc1cc(CNc2ccc(C(C)C)cc2)cc(OC)c1OC` -12

Tell me its growth inhibition given `O=C1c2ccccc2CCC1(Br)Br` as the entry. 9

Query growth inhibition for `c1ccc2c(c1)Cn1c-2nc2ccccc21` -18

Give the reported value of growth inhibition for this record: `O=C(/C=C/c1cccc2ccccc12)c1ccc(Cl)cc1` 5
